# experimentalProtocol: soluble on expression in E. coli; label from the status in PepcDB or PDB records
readoutType: soluble on expression in E. coli

• MSKLEFLAFYDELTGLPNKNSLIRWLNLKVSQMDCIDTYLIFLEVRDLEKLNVTYGYDLVDELIIHISKRIKDIAGEGNKAFKIGFDRFAIICKSENISDFIERMLSQLLLPYNVNGNLIRVNFNIGAAQIENSNEAAANLMRRCDLALIKAKEEGLNEYVIFKPSIEIQTLEHHHHHH = soluble
• MGSDKIHHHHHHMNSKIYYFSGTGNSLVVSNILKETLNGSKEVIPLAIHRKENNIDINEDILVIVFPVYFADVPDIVKSFVEKLNFNINTHIYAIATCNGVAGHSLFTIDKLLKKRGKKLSAGFLINMPGNALITPPDVEEERLKNQTNRVAEIAKCINNLEIGNIEGKNNLKSHIDSVVLRLVGKNMQIATTKFFAENKCNGCGTCKRVCPVENISIVDKKPKWGNECERCLACFHWCPKEAINVKKSFLTNRKKYHHPDITVKDIFLDK = not soluble
• MGSDKIHHHHHHMNNQVKRRKTKAVNVGKVQVGGGAPVAVQSMTCTDTRNVRETIEQIEALEKAGCEIVRVAVPDAEAASVLGKIKKSISIPLIADIHFNHHYALMAIEQDVDGIRINPGNVGKKNIAEIVRAAKDHNTVIRIGVNAGSLEKELQEKHGGPTAHALTESALNNLAFVEDMGFDRIKLSLKSSHVPTMIDAYRLVADKTDYPLHLGVTEAGTLVTSAVKSSIGMGLLLHEGIGDTIRVSVTGSPVLEIGIAYDILRALDIRRVGPDIISCPTCGRCEIDLFGLVEQVEHSLSGMKDYMKIALMGCVVNGPGEAAEADVGIAGGRGMGLLFKKGQVIRKIREEEFVKALLQEIQEMTGE = not soluble
• MGSDKIHHHHHHMILDPILDMFRGKAVTIPPLDGAFRPNTRLDDAPTFAELTEPDNLLADGGRLLATSGNAIYSLAAGAEPKVIETFPSPITAQALAPSGDLTVALESGKLLTSGKEVSLPADLSCITALAYAEDGTLWLANGSAEHAPSQWAADLMKKGASGSLWKRDATGGAFRKVAGALAFPYGLLPLGGDVLVSESWRHQLIRFDGATGNRSTVLTHLPGYPARLASAGDGGAWLALFAPRNRLIEFVLQETHYRQDMIDQVPPAYWIAPALASNRSFLEPLQCGGIRTMGIHKPWSPSRSYGLVVRLDARMQPQFSLHSRANGTRHGICSVVEKAGRLFIASKGGDCVLDAGGF = not soluble
• MKSLITAGLVFSLIASSYSAQAEEKQSGDLAADIGAVGIPVIAGSIALYKEDYDGFWMFAKGATYTLAATQALKYTVKEERPNGEDNLSFPSGHSSSAFQGASYLQFRYGWEYGVPAYIGASLVGYSRVENEHHYWRDVIAGAVLATTIQYLVTDKYLDSNSVMIAPVINDDHVGIAASFSF = not soluble
• MSLKIYLFKPYDVIGFGGLKNFSAGETHIQKSIFPPPIMRFFHIFNSVYGVFLYKDGNLFLPVPSDCLVKRKEESGKAKISPLEFPPLIRGDLEAYERANGFISFSDLMNKYAKNIDGFKIYLLEEFLKKESRVGITMDKERRVVRSIKEINRKEEKGLLYSQDFFRFNDGVKLAVLGEINKDIVISGKQYFRMGGEGKIVSFKHTEHINSFLEGKIKIKNGNYYKFYCLTHAYINNGIIESKIQTICIEGINFEVEWLYNGGVEYVSGYNKPFLEMLRPGSVLILKAKNEGEIQRLNQISTNVPISNIKNFLNRGWNSGIIVEGVKEGHHHHHH = soluble
• MGHHHHHHGGHMSLEEVLEAAEKIRSMEVRGAARIARFAAETLMKFAEKASDEKFDEEMRFAAETLLNTRPTAVSLYNAINYVMRYSGESVEEKRQSVIRRAREFINWVETAQRKIGEIGEKRIKDGYTVMTHCNSSAALSVIKKAHENGKRVEVIATESRPRWQGHLTVKQLREAGIEVTLIVDSAVRYFINEVDCVVVGADTITANGALINKIGTSQIALAAKEARVPFMVAAETYKFSPKTLFGELVVIEERDAREVAPEEILKLGVKVRNPAFDVTPRDYIDVIITEIGAIPPEMAYIVITERLGYAGIEEEEITLNSRHFDEGGS = soluble
• MDGVHDLAGVQGFGKVPHTVNADIGPTFHAEWEHLPYSLMFAGVAELGAFSVDEVRYVVERMEPRHYMMTPFYERYVIGVATLMVEKGILTQDELESLAGGPFPLSRPSESEGRPAPVETTTFEVGQRVRVRDEYVPGHIRMPAYCRGRVGTISHRTTEKWPFPDAIGHGRNDAGEEPTYHVKFAAEELFGSDTDGGSVVVDLFEGYLEPAA = soluble
• QFLSGQLSIKLWFDKVGHQLIVTILGAKDLPSREDGRPRNPYVKIYFLPDRSDKNKRRTKTVKKTLEPKWNQTFIYSPVHRREFRERMLEITLWDQARVREEESEFLGEILIELETALLDDEPHWYKLQ = soluble
• MLEFFDEDFDNMALVEGALELNKSVNPETNVHWAKQELERLYQEAEATLIHETDEEQRFDSFLRLFFHEWGFKGDDQEYFISDNSFIDKVLERKKGIPVSLGAILLYLGNRLGFPMKGVTFPTQFLIKVDWMHKTPDYINPFNGEYVGEKILQAWLIGQEGPLAQLKPEHFDEADNPTVIGRWLALIKSAMLREERYTLALRCTNLALTFVPDDPYEIRDRGFIFQQLECHQVAVSDFQYFIDQCPDDPASELLKSQVNAMSEKHVTLHLEHHHHHH = soluble
• MNSVITQKVSSGVTLYADTKTGGFMNRTILVPIDISDSELTQRVISHVEAEAKIDDAEVHFLTVIPSLPYYASLGLAYSAELPAMDDLKAEAKSQLEEIIKKFKLPTDRVHVHVEEGSPKDRILELAKKIPAHMIIIASHRPDITTYLLGSNAAAVVRHAECSVLVVR = not soluble
• MVSAGGVVLKGDPPEVLVVSLRGGRVVTLPKGQVEPGERYPETAVREVREETGVEASVLAPLGRVRYYFTVHEPEGPVTVSKEVHYFLMRHLGGTPRPQLTEVEDAFFLPASEALERLSYPNEREMLKRALLRLRARAKKG = soluble
